# ASSAY: binders from COS7 lysate, DM2A8 probe, primary screen, torsin A project, cell lysate, small-molecule microarray, fluorescence 635/667 (AID 1065)
# CONDITION DESCRIPTION: higher = more signal, COS7 lysate expressing mutant human TOR1A
Listed here are molecules together with their documented composite z-score.
MEASUREMENT TYPE: composite z-score

{"columns": ["MOLECULE", "TEST VALUE"],
 "data": [
  ["C=CC[C@@H]1C=CC(ON=C(C)C)[C@@H](CO)O1 (some centres undefined)", -0.809],
  ["Cc1cc(C)c(-c2cc([C@H](C)ON=C[C@@H](C)[C@H](OCc3ccccc3)C(C)C)on2)c(C)c1", 0.298],
  ["Cc1ccc2[nH]c3nc(CCCn4ccnc4-c4ccccc4)nnc3c2c1", 0.616],
  ["C[C@H]1CC[C@@H](C(=O)O)N[C@@H]1c1ccc(C#Cc2ccccc2)cc1", 0.0872],
  ["CCN1C(C)=C(C(=O)OC)[C@@H](c2ccccc2)N2C(=O)[C@](O)(C(=O)OC)CC(C(C)=O)=C12", 0.159],
  ["CC(C)[C@@H](OCc1ccccc1)[C@H](C)CON=C1[C@H]2CCn3c(=O)n(-c4ccccc4)c(=O)n3[C@H]2[C@H](O)[C@@H]2O[C@H]12", 0.616],
  ["CC1(C)O[C@H]2OC([C@H](O)CON3C(=O)c4ccccc4C3=O)[C@H](O)[C@H]2O1 (some centres undefined)", -0.0068],
  ["O=C1[C@H]2CCn3c(=O)n(Cc4cc5c(cc4Cl)OCO5)c(=O)n3[C@H]2[C@H](O)[C@@H]2O[C@H]12", -0.0222],
  ["CO[C@@H](C(C)C)[C@@H](C)C1OC(=O)CC1O (some centres undefined)", -0.126],
  ["CCCNC(=O)OC[C@H]1O[C@H](CCON=C[C@@H](C)[C@H](OCc2ccccc2)C(C)C)C=C[C@@H]1Oc1ccc(OC)cc1", 0.729],
  ["CC(=O)OC[C@H]1O[C@H](C#CCCc2ccccc2)C=C[C@@H]1OC(C)=O", 0.271],
  ["O=C1[C@H]2[C@H]3[C@H](O)[C@H](O)CC(=NOC[C@@H](O)COCc4ccco4)[C@@H]3CC[C@H]2C(=O)N1Cc1ccccc1", 0.389],
  ["O=C(NN=C1C[C@@H](O)[C@@H](O)[C@@H]2[C@@H]3C(=O)N(Cc4ccccc4)C(=O)[C@@H]3CC[C@H]12)OCc1ccccc1", 0.897],
  ["CN1CCc2nc(-c3ccccc3)c(-c3ccccc3)cc2C1", 0.0357]
]}

###

# EXPERIMENTAL TARGET: Torsin-1A-interacting protein 2 (Homo sapiens) (UniProt Q8NFQ8)
# Sequence (Q8NFQ8 whole entry, looked up): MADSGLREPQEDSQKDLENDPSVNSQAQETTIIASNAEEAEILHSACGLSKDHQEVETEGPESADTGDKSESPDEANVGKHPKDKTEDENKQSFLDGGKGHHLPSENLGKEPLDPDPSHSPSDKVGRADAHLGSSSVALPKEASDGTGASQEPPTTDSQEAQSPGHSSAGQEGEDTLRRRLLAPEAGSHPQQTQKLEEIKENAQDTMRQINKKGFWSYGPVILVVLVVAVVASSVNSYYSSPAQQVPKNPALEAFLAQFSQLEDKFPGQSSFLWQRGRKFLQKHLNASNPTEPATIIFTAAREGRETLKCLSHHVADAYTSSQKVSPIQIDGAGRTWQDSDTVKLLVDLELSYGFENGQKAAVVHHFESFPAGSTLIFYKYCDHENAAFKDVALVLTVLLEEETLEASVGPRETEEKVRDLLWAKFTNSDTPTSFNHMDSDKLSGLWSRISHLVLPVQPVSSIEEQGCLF
# ASSAY: LULL1 binders on small-molecule microarray, primary screen, cell lysate, human LULL1 lysate, 635/667 nm fluorescence (AID 1092);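 also: probe is lysate of COS7 cells overexpressing human LULL1; score merges per-feature 667 nm fluorescence with signal-to-noise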
# CONDITION DESCRIPTION: hLULL1 lysate binding, 635 nm fluorescence, higher = more signal
Listed here are molecules together with their documented composite z-score.
MEASUREMENT TYPE: composite z-score

{"columns": ["MOLECULE", "TEST VALUE"],
 "data": [
  ["COc1ccc(COC(=O)NN=C2C[C@@H](O)[C@@H](O)[C@@H]3[C@@H]4C(=O)N(c5cccc(Oc6ccccc6)c5)C(=O)[C@@H]4CC[C@H]23)cc1", 0.717],
  ["C[C@@H]1CC[C@H]2C(=O)OC(CN3C(=O)c4ccccc4C3=O)CN2[C@H]1c1ccc(Br)cc1 (some centres undefined)", 1.38],
  ["CCN1C(=O)[C@H]2[C@H]3[C@H](O)[C@H](O)CC(=NO[C@H](C)c4cn([C@@H]5COC[C@H]5O)nn4)[C@@H]3CC[C@H]2C1=O", 0.413],
  ["CCC1=NOC(CCC2CC(OC(=O)NCc3cccc4c3OCO4)CC3(CCCC(COC(=O)NCCc4ccc(Cl)cc4)O3)O2)C1 (centres undefined)", 1.59],
  ["COc1ccc(O[C@H]2C=C[C@@H](c3ccccc3)O[C@@H]2CO)cc1", 0.0141],
  ["CCN1C(=O)[C@H]2[C@H]3[C@H](O)[C@H](O)CC(=NO[C@@H]4O[C@H](COC(C)=O)[C@@H](OC(C)=O)[C@H](OC(C)=O)[C@H]4OC(C)=O)[C@@H]3CC[C@H]2C1=O", 1.05],
  ["CO[C@H]1COC(=O)CC=C[C@H](C)[C@H](OC)COC(=O)[C@@H](C)NC(=O)CC=C[C@@H]1C", 0.525],
  ["COC(=O)CC=C[C@@H](C)[C@@H](C=NOC[C@@H](C)[C@H](OCc1ccccc1)C(C)C)NS(=O)(=O)c1ccc(C)cc1", 0.0335],
  ["C[C@H]1CC[C@H]2C(=O)N[C@H](Cc3ccccc3)C(=O)N2[C@@H]1c1ccccc1", 0.217],
  ["CC(=O)OC[C@H]1O[C@H](C#CCCc2ccccc2)C=C[C@@H]1OC(C)=O", 1.38],
  ["O=C1C2=CC[C@H]3C(=O)N(C[C@@H]4CCCO4)C(=O)[C@H]3[C@H]2[C@H](O)[C@@H]2O[C@H]12", -0.553],
  ["CC(=O)OC[C@H]1O[C@@H](ON=C2[C@H]3CCn4c(=O)n(-c5ccccc5)c(=O)n4[C@H]3[C@H](O)[C@@H]3O[C@H]23)[C@H](OC(C)=O)[C@@H](OC(C)=O)[C@@H]1OC(C)=O", 1.37],
  ["CCOC(=O)CCN1C(=O)[C@H]2[C@H]3[C@H](O)[C@H](O)CC(=NO[C@@H]4O[C@H](CO)[C@@H](O)[C@H](O)[C@H]4O)[C@@H]3CC[C@H]2C1=O", 0.7],
  ["COC(=O)[C@H](C)NC(=O)CCC1CC(OC(=O)NCCc2ccc(F)cc2)CC2(CCCC(COC(=O)NCCc3ccccc3OC)O2)O1 (some centres undefined)", 1.16],
  ["O=C1CCCC=C1C(O)c1ccc([N+](=O)[O-])cc1 (centres undefined)", -0.33],
  ["C[C@@H]1C=CCC(=O)OC[C@H](C)C(=O)N[C@@H](Cc2ccccc2)C(=O)OC1", 0.146],
  ["CON=C(C)CCC(=O)OC[C@H]1O[C@H](C#Cc2ccccc2)C=C[C@@H]1Oc1ccc(C)cc1", 0.756],
  ["CC#CCOCCC=C1c2ccccc2[C@@H](OC)[C@@H]1C", 0.127],
  ["CCN1C(=O)[C@H]2[C@H]3[C@H](O)[C@H](O)CC(=NOC(C)CN4CCCc5nc(C)c(C)cc54)[C@@H]3CC[C@H]2C1=O (some centres undefined)", 0.404],
  ["CCN1C(=O)[C@H]2[C@H]3[C@H](O)[C@H](O)CC(=NOCC=C(C)CCC=C(C)C)[C@@H]3CC[C@H]2C1=O", 0.915],
  ["CC(C)=NO[C@@H](C)c1cn([C@H](CO)Cc2ccccc2)nn1", 1.03],
  ["COC(=O)[C@H](C)NC(=O)CCC1CC(OC(=O)NCc2ccc3c(c2)OCO3)CC2(CCCC(COC(=O)NCCc3ccc(Cl)cc3)O2)O1 (some centres undefined)", 0.945],
  ["CO[C@@H](C1CCCCC1)[C@@H](C)[C@H](OCc1cccc(Br)c1)[C@@H](C)CO", 0.366],
  ["O=C1[C@H]2[C@H]3[C@H](O)[C@H](O)CC(=NOC[C@@H](O)COCc4ccco4)[C@@H]3CC[C@H]2C(=O)N1Cc1ccccc1", 2.66]
]}

###

# EXPERIMENTAL TARGET: Concanavalin-A (Canavalia ensiformis)
# ASSAY: ConA small-molecule binders, primary screen, artefact control for SMM control protein annotation, biochemical, small-molecule microarray, Alexa647 label, 635 nm (AID 1127);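 also: z combines 667 nm emission intensity with signal-to-noise across three replicate slides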
# CONDITION DESCRIPTION: ConA-A647 binding fluorescence, higher = more signal
Listed here are compounds together with their documented composite z-score.

{"columns": ["COMPOUND", "composite z-score"],
 "data": [
  ["CC(CCN1CCc2nc(-c3ccccc3)c(-c3ccccc3)cc2C1)=NO[C@H](C)c1cn([C@H](CO)Cc2ccccc2)nn1", 0.158],
  ["C[C@]12CCC3c4ccc(OCC5CO5)cc4CCC3C1CC[C@@H]2O (some centres undefined)", 0.961],
  ["CC(C)[C@H](NC(=O)OC(C)(C)C)[C@@H](O)CC(=O)C(C)(C)C", 0.188],
  ["CC(CCN1CCCc2nc(C)c(C)cc21)=NOC[C@@H](C)[C@H](OCc1ccccc1)C(C)C", -0.691]
]}

###

# EXPERIMENTAL TARGET: Dihydroorotate dehydrogenase (quinone), mitochondrial (Plasmodium falciparum (isolate 3D7)) (UniProt Q08210)
# Sequence (Q08210 whole entry, looked up): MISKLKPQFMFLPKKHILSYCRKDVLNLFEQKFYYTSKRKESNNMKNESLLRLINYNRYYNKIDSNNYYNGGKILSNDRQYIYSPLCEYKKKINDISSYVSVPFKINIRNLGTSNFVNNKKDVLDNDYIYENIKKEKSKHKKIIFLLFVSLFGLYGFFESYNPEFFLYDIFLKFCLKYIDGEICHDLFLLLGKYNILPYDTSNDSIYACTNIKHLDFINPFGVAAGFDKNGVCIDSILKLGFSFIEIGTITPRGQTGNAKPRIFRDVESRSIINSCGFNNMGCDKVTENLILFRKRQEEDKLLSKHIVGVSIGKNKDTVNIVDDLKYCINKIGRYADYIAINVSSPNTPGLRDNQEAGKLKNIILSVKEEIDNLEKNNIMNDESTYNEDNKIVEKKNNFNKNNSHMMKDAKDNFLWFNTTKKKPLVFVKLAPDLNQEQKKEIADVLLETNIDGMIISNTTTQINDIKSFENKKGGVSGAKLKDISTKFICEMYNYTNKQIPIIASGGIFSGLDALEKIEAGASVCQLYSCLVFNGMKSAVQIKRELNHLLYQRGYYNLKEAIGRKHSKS
# ASSAY: PfDHODH enzyme inhibitors, primary screen, biochemical, C-terminal His tag, absorbance 600 nm (AID 1175);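 also: recombinant parasite enzyme with a five histidine tag at its C terminus; test concentration not given here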
# CONDITION DESCRIPTION: DCIP absorbance 600 nm, higher = more signal, called active from +8 up or from −8 down
Listed here are compounds together with their documented composite z-score.

{"columns": ["COMPOUND", "composite z-score"],
 "data": [
  ["Cc1cc2c(nc1C)CCCCN2CC(O)CN1CCCc2nc(-c3ccc(Br)cc3)ccc21 (stereo not drawn)", 0.667],
  ["CCOC(=O)[C@H](Cc1ccccc1)NC(=O)CCC1CC(OC(=O)NCCc2ccc(F)cc2)CC2(CCCC(COC(=O)NCCC(C)C)O2)O1 (stereo partly drawn)", 0.0106],
  ["C[C@H]1C=CCC(=O)OC[C@H](C)C(=O)N2CCC[C@H]2C(=O)OC1", -0.441],
  ["C=CCOCC1CN2[C@@H](CC[C@@H](C)[C@@H]2c2ccc(Br)cc2)C(=O)O1 (stereo partly drawn)", -0.959],
  ["COC(OC)[C@@H](C)[C@H](OC)[C@@H](C)[C@H](OC)c1ccccc1", -2.36],
  ["CC(=O)OC[C@H]1O[C@H](CC=NO[C@H](C)c2cn([C@@H]3COC[C@H]3O)nn2)C=C[C@@H]1OC(C)=O", -1.64],
  ["CCOC(=O)CCN1C(=O)[C@H]2[C@H]3[C@H](O)[C@H](O)CC(=NNC(=O)OCC)[C@H]3CC[C@H]2C1=O", 0.519],
  ["CCN1C(=O)[C@H]2[C@H]3[C@H](O)[C@H](O)CC(=NNC(=O)OCc4ccccc4)[C@H]3CC[C@H]2C1=O", -0.052]
]}
